Every entry's value here was drawn from ChEMBL document CHEMBL1136468.

# target_entity: Estrogen receptor beta (Homo sapiens, UniProt Q92731)
# Sequence (Q92731 whole entry): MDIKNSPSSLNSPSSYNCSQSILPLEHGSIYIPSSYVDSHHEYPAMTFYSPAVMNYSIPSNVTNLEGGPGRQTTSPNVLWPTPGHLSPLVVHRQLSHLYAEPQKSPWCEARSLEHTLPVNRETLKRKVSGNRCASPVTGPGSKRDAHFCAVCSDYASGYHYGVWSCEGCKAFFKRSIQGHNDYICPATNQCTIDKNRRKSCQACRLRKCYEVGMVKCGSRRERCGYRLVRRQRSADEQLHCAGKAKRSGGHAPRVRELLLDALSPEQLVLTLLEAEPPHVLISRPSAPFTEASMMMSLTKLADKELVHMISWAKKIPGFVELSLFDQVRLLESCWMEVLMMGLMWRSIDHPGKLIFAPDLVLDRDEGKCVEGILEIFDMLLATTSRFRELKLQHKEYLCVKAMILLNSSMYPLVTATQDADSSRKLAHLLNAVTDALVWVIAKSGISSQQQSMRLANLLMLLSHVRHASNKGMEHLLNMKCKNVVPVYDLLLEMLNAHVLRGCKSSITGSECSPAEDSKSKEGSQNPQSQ
Reported values of Ki for individual entries
readout_kind: Ki

smiles_structure	reported_measurement
C[C@@]12CCc3c(sc4cc(O)ccc34)[C@@H]1CC[C@H]2O	120 nM
C[C@@]12CCc3c(sc4cc(O)ccc34)[C@H]1CC[C@H]2O	17 nM
C[C@]12CCc3c(sc4cc(O)ccc34)[C@@H]1CC[C@H]2O	73 nM
C[C@]12CCc3c(ccc4cc(O)ccc34)[C@@H]1CC[C@H]2O	24 nM
